target_under_test: Cytochrome P450 3A4 (Homo sapiens)
protocol: qHTS Assay for Inhibitors and Substrates of Cytochrome P450 3A4 (AID 884); note: nearly all actives have a fitted effect of over 50% in size
experimental_parameters: recombinant CYP3A4, Luciferin-PPXE luminescence; series mostly up to 57.1 µM
Inconclusive results are not listed. Activity calls are given as the source filed them. Calls come from the whole dose curve; as a rule, active = well fitted inhibition curve with a large enough effect; inconclusive = small, poorly fitted or top-dose-only effect; inactive = no such curve, though single readings can be large or run the other way.
Please reply with one of these outcomes: yes = active, no = inactive

Examples from the recorded data:
[[record]]
compound = "Cc1c(-c2ccccc2)oc2cc(O)ccc2c1=O"
discrete_label = "yes"

[[record]]
compound = "CC1(C)C(=O)C(c2ccccc2)=C2CN3C(=O)N(CCc4ccccc4)C(=O)C3(Cc3ccccc3)C=C21 (configuration not stated)"
discrete_label = "yes"

[[record]]
compound = "CCC/C=C(\\CCC)C(NS(=O)(=O)c1cccc2cccnc12)c1ccc(-c2ccccc2)cc1 (configuration not stated)"
discrete_label = "yes"

[[record]]
compound = "C[C@@H](C(=O)NCc1cccc2ccccc12)[C@H]1C[C@]1(C)[C@H](NC(=O)OCc1ccccc1)c1ccccc1"
discrete_label = "yes"

[[record]]
compound = "O=C(/C=C/c1ccc(O)c(O)c1)OC1C[C@](O)(C(=O)O)C[C@@H](O)[C@H]1O (some centres not stated)"
discrete_label = "no"


Task: Identify the outcome logged in this assay for the compound shown: "COc1ccc2nc3c(c([Si](C)(C)C(C)(C)C)c2c1)Cn1c-3cccc1=O"
Result: yes

Task: Okay, and "COC(=O)[C@@]1(Cc2ccc(F)cc2)[C@H]2c3cc(C(=O)N4CCCC4)n(CCCNc4ncc(C(F)(F)F)cc4Cl)c3C[C@H]2CN1C(=O)c1ccccc1" ?
Result: yes

Task: Consider next the compound "COC(=O)[C@@]1(Cc2ccccc2)[C@H]2c3cc(C(=O)N4CCCC4)n(Cc4cc(F)cc5c4OCOC5)c3C[C@H]2CN1C(=O)c1ccccc1" in the same way.
Result: yes

Task: Same thing, different compound: CCC/C=C(\CCC)C(NC(=O)c1cccs1)c1ccc(C(F)(F)F)cc1 (configuration not stated)
Result: yes

Task: Another: OCCN1CC(O)C(O)C(O)C1CO (configuration not stated)
Result: no

Task: And "COC(=O)[C@@]1(Cc2ccc(F)cc2)[C@H]2c3cc(C(=O)N(C)C)n(Cc4ccc(Cl)c(C(F)(F)F)c4)c3C[C@H]2CN1C(=O)c1ccccc1" ?
Result: yes

Task: Let us now turn to "CCCCCC/C(C=O)=C\c1ccccc1"
Result: no

Task: // query: "COC(=O)Cn1c(C(=O)N2CCCC2)cc2c1C[C@H]1CN(C(=O)c3ccccc3)[C@@](Cc3ccc(F)cc3)(C(=O)OC)[C@@H]21"
Result: yes

Task: Note, next up: "CCCC[C@H]1C[C@@H]1[C@@H]1N(P(=O)(c2ccccc2)c2ccccc2)C[C@@](O)(c2ccccc2)CC12CC2"
Result: yes

Task: Next: "Cc1cc(C(C)(C)CC(C)(C)C)ccc1OCCOCC[N+](C)(C)Cc1ccccc1"
Result: no

Task: Would you kindly repeat that for "C[C@@H](C(=O)Nc1ccc2ccccc2c1)[C@H]1C[C@]1(C)[C@H](NP(=O)(c1ccccc1)c1ccccc1)c1ccccc1" ?
Result: yes

Task: "C[C@@H](C(=O)Nc1ccc2ccccc2c1)[C@@H]1C[C@@]1(C)[C@@H](N)c1ccccc1" , same question.
Result: yes

====

System: CP291
protocol: qHTS profiling for inhibitors of Plasmodium falciparum proliferation (AID 504749); note: nearly all actives have a fitted effect of over 60% in size
experimental_parameters: P. falciparum in erythrocytes, SYBR Green DNA, 72 h; series mostly up to 28.7 µM
Inconclusive results are not listed. Calls of active or inactive are those of the source. Calls follow the shape of the dose curve; as a rule, active = well fitted inhibition curve with a large enough effect; inconclusive = small, poorly fitted or top-dose-only effect; inactive = flat fitted curve, though single readings scatter.
Return exactly one item of active, inactive

Please review the following examples before continuing.
[[record]]
molecule = "C/C=C\\C[C@H](C)[C@H](O)[C@H]1C(=O)N[C@@H](CC)C(=O)N(C)CC(=O)N(C)[C@@H](CC(C)C)C(=O)N[C@@H](C(C)C)C(=O)N(C)[C@@H](CC(C)C)C(=O)N[C@@H](C)C(=O)N[C@@H](C)C(=O)N(C)[C@@H](CC(C)C)C(=O)N(C)[C@@H](CC(C)C)C(=O)N(C)[C@@H](C(C)C)C(=O)N1C"
discrete_label = "active"

[[record]]
molecule = "O=C(O)c1ccc(N[C@@H]2OC[C@@H](O)[C@@H](O)[C@@H]2O)cc1"
discrete_label = "inactive"

[[record]]
molecule = "CC(CN1CC(=O)NC(=O)C1)N1CC(=O)NC(=O)C1 (configuration not stated)"
discrete_label = "inactive"

[[record]]
molecule = "CO/N=C(/C(=O)N[C@@H]1C(=O)N2C(C(=O)O)=C(CSc3cnns3)CS[C@H]12)c1csc(N)n1"
discrete_label = "inactive"

[[record]]
molecule = "CC[C@@]1(O)C[C@H](O[C@H]2C[C@@H](N(C)C)[C@@H](O[C@H]3C[C@@H](O)[C@@H](O[C@H]4CCC(=O)[C@@H](C)O4)[C@@H](C)O3)[C@@H](C)O2)c2c(cc3c(c2O)C(=O)c2c(O)cccc2C3=O)[C@H]1C(=O)OC"
discrete_label = "active"


Task: Name the outcome recorded for COc1cccc2c1C(=O)c1c(O)c3c(c(O)c1C2=O)C[C@@](O)(C(=O)CO)C[C@@H]3OC1CC(N)C(O)C(C)O1 (some centres not stated) in the assay.
Result: active

Task: Record: CC1CN(c2c(F)c(N)c3c(=O)c(C(=O)O)cn(C4CC4)c3c2F)CC(C)N1 (configuration not stated)
Result: inactive

====

Task for the reader: assign each of the following compounds its reported activity, negative = inhibition.
protocol: Stat Signaling Pathway (AID 446);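 note: ME-180 cervical cancer cells given 40 pM IL-6 alongside compound; SIE-controlled beta-lactamase reporter measured as 460/530 nm FRET emission ratio; % is set by controls: 0 for no effect and ±100 for the full control effect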
experimental_parameters: ME-180 (cervical carcinoma) SIE beta-lactamase reporter, IL-6 stimulated, 5 h; at 17.2 µM (top of the series) unless noted
Records with an inconclusive call do not appear. The source made the active and inactive calls. Calls come from the whole dose curve; as a rule, active = well fitted curve in either direction with a large enough effect (not every such curve was filed as active); inconclusive = small, poorly fitted or top-dose-only effect, or another doubt; inactive = flat fitted curve, though single readings scatter.

[[record]]
compound = "CCOC(=O)CSc1nc(-c2ccc3c(c2)OCO3)ccc1C#N"
result = "4.79% (inactive)"

[[record]]
compound = "Cc1nn(CC(N)=O)c(=O)c2ccccc12"
result = "9.04% (inactive)"

[[record]]
compound = "COc1ccc(-c2onc(C)c2-c2ccccc2)c(O)c1"
result = "-25.2% (inactive)"

[[record]]
compound = "Cc1ccc(-n2ncc3c(NCCCN4CCCC4=O)ncnc32)c(C)c1"
result = "9.31% (inactive)"

[[record]]
compound = "COc1ccc(CC(=O)OCN2C(=O)c3ccccc3C2=O)cc1"
result = "-0.768% (inactive)"

[[record]]
compound = "CCOC(=O)/C=c1\\s/c(=C(\\C#N)C(=O)OCC)n(-c2ccccc2)c1=O"
result = "-22.2% (inactive)"

[[record]]
compound = "CCCCn1cnc2c(c1=O)c1nc3ccccc3nc1n2Cc1ccc2c(c1)OCO2"
result = "10.3% (inactive)"

[[record]]
compound = "N#C/C(C(=O)N1CCOCC1)=C1/SC(Cc2ccccc2)C(=O)N1c1ccccc1 (stereo unspecified)"
result = "-8.3% (inactive)"


Batch request: activity, negative = inhibition per item, same order as input.
1. COC(=O)c1sc(NC(=O)c2oc3ccccc3c2C)nc1C
2. C=CCSc1nc(C)c(CC=C)c(=O)[nH]1
3. Nc1cc(S(N)(=O)=O)ccc1SSc1ccc(S(N)(=O)=O)cc1N

Result:
18.1% (inactive)
0.0275% (inactive)
-1.82% [at 7.69 µM] (inactive)

====

protocol: Cell Viability - HUV-EC-C (AID 542);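 note: cells exposed to compound for 40 hours; nearly all actives have a fitted effect of over 35% in size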
experimental_parameters: HUV-EC-C endothelial cell viability, qHTS; series mostly up to 92.2 µM
Records with an inconclusive call do not appear. Active and inactive are the calls of the source. Calls follow the shape of the dose curve; as a rule, active = well fitted cell-killing curve with a large enough effect; inconclusive = small, poorly fitted or top-dose-only effect, or effect the other way; inactive = flat fitted curve, though single readings scatter.
Answer with one of the outcomes given here: active, inactive

Study these solved cases before continuing.
[[record]]
molecule = "CCC(C)Nc1ccc(NC(C)CC)cc1 (stereo unspecified)"
discrete_label = "active"

[[record]]
molecule = "Cc1ccc(S(=O)(=O)Oc2ccc(N=Nc3ccc(-c4ccc(N=Nc5c(O)ccc6cc(S(=O)(=O)O)cc(S(=O)(=O)O)c56)c(C)c4)cc3C)cc2)cc1"
discrete_label = "active"

[[record]]
molecule = "O=Cc1ccc(Cl)c(Cl)c1"
discrete_label = "inactive"

[[record]]
molecule = "O=C1OC(O)C(C(Cl)Cl)=C1Cl (stereo unspecified)"
discrete_label = "inactive"


Task: For O=C(/C=C/c1ccc(O)c(O)c1)OC1C[C@](O)(C(=O)O)C[C@@H](O)[C@H]1O (stereo partly specified) , what call appears in the results of this test?
Result: inactive

Task: Entry to check: "c1ccc2c(c1)ccc1cc3c(ccc4ccccc43)cc12"
Result: inactive

Task: Also check "Cc1cc(O)c(C(C)(C)C)cc1Sc1cc(C(C)(C)C)c(O)cc1C"
Result: active

Task: Next up: "CCCCCCCC[N+](CCCCCCCC)(CCCCCCCC)CCCCCCCC"
Result: active

Task: Try "CN(C)c1ccc(C2(c3ccc(N(C)C)cc3)OC(=O)c3cc(N(C)C)ccc32)cc1" next.
Result: inactive

Task: Also check CN1[C@H]2CC(OC(=O)[C@H](CO)c3ccccc3)C[C@H]1[C@H]1O[C@H]12 (stereo partly specified)
Result: inactive

Task: Next molecule up: "CCCCCC/C(C=O)=C\c1ccccc1"
Result: inactive
